target: glycosylated human LCAT protein (Homo sapiens, UniProt P04180); construct: purchased Sino Biological Inc., Beijing, China; host or cells: human cells; assay: MP-SPR binding of LCAT to immobilised biotin-labelled apoA-I-derived peptides; conditions: N-terminal biotin-peptide on streptavidin-coated sensor, LCAT 156-5,000 nM serial injections of 15 min, 10 μl/min, buffer A pH 7.4, 293 K, Langmuir fit
Sequence (P04180 25-440): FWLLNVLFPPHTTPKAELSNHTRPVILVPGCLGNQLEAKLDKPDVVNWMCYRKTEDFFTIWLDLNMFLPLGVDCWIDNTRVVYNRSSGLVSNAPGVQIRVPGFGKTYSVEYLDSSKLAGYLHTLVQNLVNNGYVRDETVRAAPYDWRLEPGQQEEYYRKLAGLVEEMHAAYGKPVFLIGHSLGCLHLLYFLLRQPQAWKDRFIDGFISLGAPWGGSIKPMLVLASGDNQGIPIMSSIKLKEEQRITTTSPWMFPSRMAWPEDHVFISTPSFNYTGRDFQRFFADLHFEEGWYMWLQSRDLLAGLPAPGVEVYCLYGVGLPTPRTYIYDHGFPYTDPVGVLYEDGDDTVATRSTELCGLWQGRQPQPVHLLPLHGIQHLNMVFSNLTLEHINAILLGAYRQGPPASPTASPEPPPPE
No end group written: not given here.
This listing pairs sequences with measured Kd.

MACROMOLECULE SEQUENCE	TARGET UNDER TEST	Kd [µM]
LRAELQEGARQKLHELQEKLS [122-142]	glycosylated human LCAT protein (Homo sapiens, UniProt P04180)	1.03
HELQEKLSPLGEEMRDRARAH [135-155]	glycosylated human LCAT protein (Homo sapiens, UniProt P04180)	0.819
GGARLAEYHAKATEHLSTLSE [185-205, reference compound]	glycosylated human LCAT protein (Homo sapiens, UniProt P04180)	4.69
DRARAHVDALRTHLAPFSDEL [150-170-Y166F]	glycosylated human LCAT protein (Homo sapiens, UniProt P04180)	1.84
DRARAHVDALRTHLAPYSDEL [150-170]	glycosylated human LCAT protein (Homo sapiens, UniProt P04180)	0.29
